target: Glycogen synthase kinase-3 beta (Homo sapiens, UniProt P49841)
Sequence (P49841 whole entry): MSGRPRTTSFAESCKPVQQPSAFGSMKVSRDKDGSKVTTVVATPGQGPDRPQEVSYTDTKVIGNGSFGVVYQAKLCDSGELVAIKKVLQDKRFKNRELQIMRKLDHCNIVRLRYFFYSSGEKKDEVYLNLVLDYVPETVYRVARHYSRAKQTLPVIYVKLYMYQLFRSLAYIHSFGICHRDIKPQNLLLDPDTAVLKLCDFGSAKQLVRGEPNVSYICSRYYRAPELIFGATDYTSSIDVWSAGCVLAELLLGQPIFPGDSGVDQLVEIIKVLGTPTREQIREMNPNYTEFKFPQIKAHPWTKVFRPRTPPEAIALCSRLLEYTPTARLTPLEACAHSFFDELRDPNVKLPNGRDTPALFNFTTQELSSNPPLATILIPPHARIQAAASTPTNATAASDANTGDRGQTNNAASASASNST
assay_endpoint: pIC50
Expect pIC50 as a plain number equal to -log10 of the molar concentration.

Prompt: Quick check: pIC50 on Glycogen synthase kinase-3 beta (Homo sapiens, UniProt P49841), item "COc1cc2c(cc1OC)CN(CC(=O)Nc1ccc3c(c1)/C(=C/c1cnc[nH]1)C(=O)N3)CC2" ?
Response: 6.57

###

Property: IC50; scope: individual molecules
target: 3-phosphoinositide-dependent protein kinase 1 (Homo sapiens, UniProt O15530); assay: Inhibition of PDK1 (unknown origin) incubated for 1 hr by Z'Lyte assay
Sequence (O15530 whole entry): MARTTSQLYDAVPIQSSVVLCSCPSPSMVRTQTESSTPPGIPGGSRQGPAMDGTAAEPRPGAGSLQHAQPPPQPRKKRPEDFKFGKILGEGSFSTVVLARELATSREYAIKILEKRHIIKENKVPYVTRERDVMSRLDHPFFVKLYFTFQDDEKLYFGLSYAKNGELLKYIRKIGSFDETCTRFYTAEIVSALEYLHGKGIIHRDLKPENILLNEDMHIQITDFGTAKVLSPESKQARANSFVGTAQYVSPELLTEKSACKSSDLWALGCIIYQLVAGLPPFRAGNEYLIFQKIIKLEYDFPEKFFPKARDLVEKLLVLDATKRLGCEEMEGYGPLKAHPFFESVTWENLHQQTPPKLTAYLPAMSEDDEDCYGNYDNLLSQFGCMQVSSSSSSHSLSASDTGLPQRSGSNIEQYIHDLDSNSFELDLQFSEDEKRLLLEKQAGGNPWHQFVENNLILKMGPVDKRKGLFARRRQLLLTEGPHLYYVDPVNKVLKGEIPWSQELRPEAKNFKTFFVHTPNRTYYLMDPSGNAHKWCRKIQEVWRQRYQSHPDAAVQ
Could you give me the number in nM? Just the number is fine.

Worked examples, 2 molecules total:
| chemical_smiles | units_label | IC50 |
| --- | --- | --- |
| COc1cc2c(cc1OC)CN(CC(=O)Nc1ccc3c(c1)/C(=C/c1cnc[nH]1)C(=O)N3)CC2 | nM | 980 |
| CS(=O)(=O)Nc1ccc2c(c1)/C(=C/c1cccs1)C(=O)N2 | nM | 6810 |

Prompt: Endpoint output: IC50 of "CS(=O)(=O)Nc1ccc2c(c1)/C(=C/c1cnc[nH]1)C(=O)N2" . Value?
Response: 310
